pKi values, listed per item
- measurement target: Protease (Human immunodeficiency virus 1, UniProt Q9YQ12, V82A)
- Sequence (Q9YQ12 entry or part of it V82A): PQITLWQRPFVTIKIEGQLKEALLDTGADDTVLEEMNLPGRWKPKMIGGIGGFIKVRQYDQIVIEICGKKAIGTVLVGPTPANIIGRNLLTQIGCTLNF
- test summary: Inhibition of HIV1 protease V82A mutant after 48 hrs by micro-titer plate assay
pKi: −log10 of the molar value.

{"cpd smiles": "COc1ccc(S(=O)(=O)N(CC(C)C)[C@@H](O)[C@H](Cc2ccccc2)n2cc(CNC(=O)c3ccc(CNC(=O)OC(C)(C)C)cc3)nn2)cc1", "measurement target": "Protease (Human immunodeficiency virus 1, UniProt Q9YQ12, V82A)", "pKi": 7.52}
{"cpd smiles": "COc1ccc(S(=O)(=O)N(CC(C)C)[C@@H](O)[C@H](Cc2ccccc2)n2cc(COC(=O)N[C@H]3Cc4ccccc4[C@H]3O)nn2)cc1", "measurement target": "Protease (Human immunodeficiency virus 1, UniProt Q9YQ12, V82A)", "pKi": 7.57}
